Values were extracted from patent US20120316200A1.

In what follows, each item is paired with its IC50 for human MCH-1R (Homo sapiens).
observation.type: IC50 (nM)

- compound: "COC(=O)COc1ccc(-n2ccc(OCc3ccc(F)cc3)cc2=O)cc1C [Example 19]"
  study.system: "human MCH-1R (Homo sapiens)"
  recorded.number: 31
- compound: "Cc1cc(-n2ccc(OCc3ccc(F)cc3)cc2=O)ccc1OCC1(O)CC1 [Example 5]"
  study.system: "human MCH-1R (Homo sapiens)"
  recorded.number: 11
- compound: "COc1cc(-n2ccc(OCc3ccc(Cl)cn3)cc2=O)ccc1OC[C@H](O)C1CC1 [Example 21]"
  study.system: "human MCH-1R (Homo sapiens)"
  recorded.number: 33
- compound: "CC(C)(O)c1ccc2cc(-n3ccc(OCc4ccc(F)cc4)cc3=O)ccc2n1 [Example 7]"
  study.system: "human MCH-1R (Homo sapiens)"
  recorded.number: 38
- compound: "O=c1cc(OCc2ccc(Cl)cn2)ccn1-c1ccc(OC[C@@H](O)C2CC2)cc1 [Example 26]"
  study.system: "human MCH-1R (Homo sapiens)"
  recorded.number: 91
- compound: "CC(C)(O)COc1ccc(-n2ccc(OCc3ccc(F)cc3)cc2=O)cc1F [Example 12]"
  study.system: "human MCH-1R (Homo sapiens)"
  recorded.number: 97
